# System: HEK-293T
# Procedure summary: Multiplex assay against HEK293T
# Format: toxicity, cell-based
# Condition set: human, 24 h, 1 µM, compound concentration 1 uM, replicate 2
Lab note - cut at 5% for Population Fragmented Nuclei (%): 1 if strictly below, -1 if not.

Look over these answered cases.
molecule=Cc1c(P(=S)(c2ccccc2)c2ccccc2)n2ccccc2[n+]1C/C=C/c1ccccc1.[Br-] class_name=-1
molecule="Cl.Cn1c2c(c3ccc(Cl)c(Cl)c31)C(C#N)C1(CCNCC1)NC2=O (stereo not given)" class_name=-1
molecule=N#CCNC(=O)c1ccc(-c2ccnc(Nc3ccc(N4CCOCC4)cc3)n2)cc1 class_name=-1

Note: attention shifts to another entry.
Population Fragmented Nuclei (%) under 5%? Item: "CCCc1cc(C)[nH]c(=O)c1CNC(=O)c1cc(-c2ccc(N3CCN(C(C)C)CC3)nc2)cc2c1cnn2C(C)C"
1
